Molecular target: T1, 4H797-bN
T1 chain: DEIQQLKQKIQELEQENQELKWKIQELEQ
Test: two-hybrid library CCNG1;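 also: natural log of median RNA to DNA barcode read ratio; higher means stronger binding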
quantityKind: interaction score

Field: example entries. Status: answers known.
{"columns": ["binder", "interaction score"],
 "data": [
  ["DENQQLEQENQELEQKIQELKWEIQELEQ [4H1193-bN]", -0.958],
  ["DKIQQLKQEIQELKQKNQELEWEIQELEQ [4H2673-bN]", -0.839],
  ["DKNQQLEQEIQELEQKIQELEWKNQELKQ [4H3112-bN]", -0.676],
  ["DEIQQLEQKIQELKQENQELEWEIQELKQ [4H338-bN]", -1.45],
  ["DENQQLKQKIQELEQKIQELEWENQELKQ [4H1828-bN]", -1.07]
]}

I. DEIQQLEQKNQELKQEIQELKWEIQELEQ [4H457-bN]
II. DEIQQLEQKNQELKQEIQELKWKIQELKQ [4H462-bN]
III. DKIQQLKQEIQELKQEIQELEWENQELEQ [4H2627-bN]
Arrange the 3 binders by rising interaction score, starting with the smallest. I'd appreciate it if you listed the labels in the requested order. III, I, II

P. DEIQQLKQENQELKQKNQELEWEIQELKQ [4H754-bN]
Q. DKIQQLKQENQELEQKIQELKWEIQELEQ [4H2729-bN]
API: POST /compare with P and Q ; response names the item with higher interaction score. Give the label of your selection. Q
(Q: -1.01, P: -1.55)

1. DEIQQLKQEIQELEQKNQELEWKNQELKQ [4H568-bN]
2. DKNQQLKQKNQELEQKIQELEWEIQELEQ [4H4001-bN]
I'm curious whether 1 or 2 has the smaller interaction score number. Which is it? Mark your selection by writing its label. 2
(2: -1.1, 1: 0)
